inhibition at 0.5 µM values for the compounds below.
Tested System: ROS/ROS1 (Homo sapiens (Human))
Sequence (P08922 28-2347): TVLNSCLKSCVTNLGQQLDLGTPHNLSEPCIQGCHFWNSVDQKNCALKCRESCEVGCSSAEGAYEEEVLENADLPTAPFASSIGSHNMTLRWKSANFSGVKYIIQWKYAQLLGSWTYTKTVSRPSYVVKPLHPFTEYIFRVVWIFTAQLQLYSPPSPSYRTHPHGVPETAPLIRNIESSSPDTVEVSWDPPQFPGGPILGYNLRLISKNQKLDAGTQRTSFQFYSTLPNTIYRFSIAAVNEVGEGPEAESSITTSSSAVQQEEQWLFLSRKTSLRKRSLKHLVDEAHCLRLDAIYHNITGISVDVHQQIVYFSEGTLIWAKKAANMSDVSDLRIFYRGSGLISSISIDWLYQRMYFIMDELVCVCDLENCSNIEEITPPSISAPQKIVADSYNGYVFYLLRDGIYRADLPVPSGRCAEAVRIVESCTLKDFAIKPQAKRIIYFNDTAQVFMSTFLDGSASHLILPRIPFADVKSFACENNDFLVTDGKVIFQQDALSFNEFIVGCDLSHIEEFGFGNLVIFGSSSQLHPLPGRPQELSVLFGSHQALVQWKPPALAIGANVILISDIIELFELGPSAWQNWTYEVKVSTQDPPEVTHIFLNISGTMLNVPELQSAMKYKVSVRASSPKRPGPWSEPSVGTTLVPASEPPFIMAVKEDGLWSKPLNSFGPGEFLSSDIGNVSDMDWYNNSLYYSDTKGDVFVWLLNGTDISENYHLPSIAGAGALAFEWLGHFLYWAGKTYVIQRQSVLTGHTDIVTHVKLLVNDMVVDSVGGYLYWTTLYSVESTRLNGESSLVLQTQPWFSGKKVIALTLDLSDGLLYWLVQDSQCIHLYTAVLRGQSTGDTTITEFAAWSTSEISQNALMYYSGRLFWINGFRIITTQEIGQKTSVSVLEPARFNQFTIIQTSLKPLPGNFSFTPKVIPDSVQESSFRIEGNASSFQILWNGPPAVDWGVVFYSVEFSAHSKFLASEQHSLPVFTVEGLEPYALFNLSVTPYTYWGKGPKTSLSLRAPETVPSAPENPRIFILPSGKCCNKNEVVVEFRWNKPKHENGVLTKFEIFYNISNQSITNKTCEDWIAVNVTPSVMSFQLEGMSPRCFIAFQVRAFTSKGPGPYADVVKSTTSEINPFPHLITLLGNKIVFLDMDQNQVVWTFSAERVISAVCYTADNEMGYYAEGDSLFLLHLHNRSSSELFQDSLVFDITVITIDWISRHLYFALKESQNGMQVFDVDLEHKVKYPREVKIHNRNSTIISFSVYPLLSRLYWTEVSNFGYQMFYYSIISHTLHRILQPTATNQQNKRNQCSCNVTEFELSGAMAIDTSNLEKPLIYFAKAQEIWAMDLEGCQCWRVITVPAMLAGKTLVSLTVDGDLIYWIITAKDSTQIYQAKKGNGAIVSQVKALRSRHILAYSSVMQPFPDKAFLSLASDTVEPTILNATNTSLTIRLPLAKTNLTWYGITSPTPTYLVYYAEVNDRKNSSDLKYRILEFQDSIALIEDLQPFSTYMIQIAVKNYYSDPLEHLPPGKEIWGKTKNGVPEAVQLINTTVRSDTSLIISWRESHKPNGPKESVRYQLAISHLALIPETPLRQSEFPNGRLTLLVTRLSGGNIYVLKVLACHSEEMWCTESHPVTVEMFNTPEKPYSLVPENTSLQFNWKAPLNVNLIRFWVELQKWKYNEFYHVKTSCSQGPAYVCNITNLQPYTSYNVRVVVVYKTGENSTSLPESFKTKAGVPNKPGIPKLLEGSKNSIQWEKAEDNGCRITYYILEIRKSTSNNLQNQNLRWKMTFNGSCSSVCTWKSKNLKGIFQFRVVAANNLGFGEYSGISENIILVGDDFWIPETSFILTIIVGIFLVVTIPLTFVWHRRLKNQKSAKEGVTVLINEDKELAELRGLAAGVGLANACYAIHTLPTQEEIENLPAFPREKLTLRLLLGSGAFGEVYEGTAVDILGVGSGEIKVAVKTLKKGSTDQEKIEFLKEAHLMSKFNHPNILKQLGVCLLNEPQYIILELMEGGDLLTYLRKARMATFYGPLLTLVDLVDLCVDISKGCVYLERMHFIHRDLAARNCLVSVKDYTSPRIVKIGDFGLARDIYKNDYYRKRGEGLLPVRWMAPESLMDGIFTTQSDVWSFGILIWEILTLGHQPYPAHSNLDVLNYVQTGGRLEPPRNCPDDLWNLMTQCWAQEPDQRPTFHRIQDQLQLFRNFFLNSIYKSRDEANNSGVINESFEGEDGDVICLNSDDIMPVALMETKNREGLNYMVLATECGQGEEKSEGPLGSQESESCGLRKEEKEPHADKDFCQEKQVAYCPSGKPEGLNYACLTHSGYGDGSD
Procedure Details: Reaction Biology HotSpot kinase assay
Type: biochemical
Condition Info: 500 nM compound; read-out: Percentage kinase inhibition ROS/ROS1
Measured Property: inhibition at 0.5 µM (%)

{"Chem Smiles": "Cc1ccc(C(=O)Nc2ccc(CN3CCN(C)CC3)c(C(F)(F)F)c2)cc1C#Cc1cc(N)nc2ccccc12", "Measured Property": "inhibition at 0.5 µM", "Unit Abbrev": "%", "Test Value": 0}
{"Chem Smiles": "Cc1ccc(C(=O)Nc2ccc(CN3CCN(C)CC3)c(C(F)(F)F)c2)cc1C#Cc1cnc(N)c2ncccc12", "Measured Property": "inhibition at 0.5 µM", "Unit Abbrev": "%", "Test Value": 0}
{"Chem Smiles": "Cc1ccc(C(=O)Nc2ccc(CN3CCN(C)CC3)c(C(F)(F)F)c2)cc1C#Cc1cnc(N)c2ccccc12", "Measured Property": "inhibition at 0.5 µM", "Unit Abbrev": "%", "Test Value": 0}
{"Chem Smiles": "COc1cc2nc(N)nc(C#Cc3cc(C(=O)Nc4ccc(CN5CCN(C)CC5)c(C(F)(F)F)c4)ccc3C)c2cc1OC", "Measured Property": "inhibition at 0.5 µM", "Unit Abbrev": "%", "Test Value": 0}
{"Chem Smiles": "Cc1ccc(C(=O)Nc2ccc(CN3CCN(C)CC3)c(C(F)(F)F)c2)cc1C#Cc1c(N)ncc2ccc(Cl)cc12", "Measured Property": "inhibition at 0.5 µM", "Unit Abbrev": "%", "Test Value": 10}
